Biological target: HLA-B*0702 (Homo sapiens, UniProt P01889)
Construct: expressed in transfected cells; host or cells: TAP-deficient T2 cells transfected with HLA-B*0702 (T2-B*0702)
Details: ratio of concentrations of tested and R10V reference peptide needed to reach 20% of maximal HLA-B*0702 on T2 cells; the lower, the stronger the binding
Assay metric: Fixation Test RA (relative affinity)

[[record]]
entry_sequence = "QPPLYFVHQM [Q10QM, Non-canonic ARFP (alternative reading frame peptide), ENV]"
experimental_result = "(49)"

[[record]]
entry_sequence = "AAISPVLRL [A9RL, Non-canonic ARFP (alternative reading frame peptide), POL]"
experimental_result = "(15)"

[[record]]
entry_sequence = "GPHMPVYPQT [G10QT, Non-canonic ARFP (alternative reading frame peptide), ENV]"
experimental_result = "(22)"

